# measurement.notes: Visual assessment score (clarity of gel in 1 cm cuvette)
# Type: physicochemical
# reported.conditions: 9% REF2 and 1% of the specified ester in 60:40 hydrogenated polydecene:DC245; scale −12 to 8
outcome.measure: Clarity Visual (assessment score)

>>> observed_value("CCCCCCCCC(=O)OCC1OC(OC2C(COC(=O)CCCCCCCC)OC(OC(=O)CCCCCCCC)C(OC(=O)CCCCCCCC)C2OC(=O)CCCCCCCC)C(OC(=O)CCCCCCCC)C(OC(=O)CCCCCCCC)C1OC(=O)CCCCCCCC (mixture of isomers) [REF 3, reference compound]")
"translucent 4"
>>> observed_value("CCCCCCCCC(=O)OCC1OC(O)C(OC(=O)CCCCCCCC)C(OC(=O)CCCCCCCC)C1OC1OC(COC(=O)CCCCCCCC)C(OC(=O)CCCCCCCC)C(OC(=O)CCCCCCCC)C1OC(=O)CCCCCCCC (mixture of isomers) [REF 5, reference compound]")
"translucent 4"
